# EXPERIMENT: BSK_SAg_Proliferation: Cell Proliferation Assessment in the BioMAP Diversity Plus: SAg Assay (AID 2283095);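 also: relative cell number as total protein by SRB absorbance in sub-confluent culture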
# TEST SETTINGS: primary human HUVEC with PBMC
The source made the active and inactive calls. The calls were made as follows: active = hit-call score of the fitted dose curve at least 0.9, where 1 is the maximum; inactive = score below 0.9.
Valid outcomes are listed here; reply with one: active, inactive

Please let me know the test result on file for `NCC(F)(F)C(F)(F)C(F)(F)C(F)(F)C(F)(F)C(F)(F)C(F)(F)C(F)(F)F` .
inactive

Please share the test call associated with `O=C(O)C(F)(F)C(F)(F)C(F)(F)OC(F)(F)F` .
inactive

Test call for this molecule, please: `O=C(c1ccccc1)c1ccc(O)cc1O`
inactive

Call for entry `Cc1cc(O)c(C(C)(C)C)cc1C(C)(C)C` :
active

Value source: PubChem BioAssay (EPA / NIEHS)
